- PROTOCOL DETAILS: Isocratic elution measurement of slope S (log k vs. φ plots), RP-HPLC with UV detection
- Type: physicochemical
- MEASUREMENT CONTEXT: Luna C18(2) column, water/acetonitrile with 0.1% formic acid, 22-23° C.
READOUT KIND: Slope (S in the basic LSS equation)

1. LAGGGSASSSADAAAFR [Peptide 9, synthetic S-calibrating peptide] ... 34.8
2. LLLGGDFR [Peptide 3, synthetic S-calibrating peptide] ... 21.46
3. LASAADFR [Peptide 6, synthetic S-calibrating peptide] ... 27.07
4. LLSLADFG [Peptide 8, synthetic S-calibrating peptide] ... 19.2
5. LGGGGGGDFR [Peptide 1, synthetic S-calibrating peptide] ... 28.2
6. LLGGGGDFR [Peptide 2] ... 24.76
7. LLLLDFR [Peptide 4, synthetic S-calibrating peptide] ... 21.78
8. LLLLLDFR [Peptide 5, synthetic S-calibrating peptide] ... 22.76
9. LLGGSLSSLHAAFR [Peptide 10, synthetic S-calibrating peptide] ... 33.81
10. LASAAHFR [Peptide 7, synthetic S-calibrating peptide] ... 35.59
11. LAGGGSASSSAHAAAFR [Peptide 11, synthetic S-calibrating peptide] ... 44.66

----------
- PROTOCOL DETAILS: Determination of S from retention time shift Δ relative to P3 at two gradient slopes, nano-RP-HPLC MS of spiked tryptic digest
- Type: physicochemical
- MEASUREMENT CONTEXT: experimental S value, LC-MS runs of model peptide mixture
param class (str): category from Slope (experimental); see ranges lower segment (below 30), middle segment (30 to below 40), upper segment (40 or more)

1. NLNREDFR ... middle segment
2. NLSVEDAAR ... middle segment
3. ECHLAQVPSHAVVAR ... upper segment
4. EGFGHLSPTGNTEFWLGNEK ... middle segment
5. DAQLFIQK ... lower segment
6. AIQISYNPDQPSKPNNIESATK ... upper segment
7. LESDVSTQMEYCR ... middle segment
8. KVPQVSTPTLVEVSR ... middle segment
9. LLSLADFR ... lower segment
10. ILESGPFVSCVKK ... middle segment
11. EPISVSSQQMLK ... middle segment
12. YLYEIAR ... lower segment
13. SMMEEIMK ... lower segment
14. LKECCDKPLLEK ... upper segment
15. LLVLLHFR ... lower segment
16. LAGSASADAFR ... middle segment
17. LLGSLSLHAFR ... middle segment
18. QNCDQFEK ... middle segment
19. NLLFNDNTECLAK ... lower segment
20. YICDNQDTISSK ... middle segment
21. FSTVAGESGSADTVRDPR ... upper segment
22. LLGSLSLDAFR ... lower segment
23. YAAELHLVHWNTK ... middle segment
24. WCAIGHQER ... middle segment
25. RAFALECIR ... middle segment
26. TVMENFVAFVDK ... lower segment
27. YLTTLK ... lower segment
28. LAGGSASSAHAAFR ... upper segment
29. DGTRKPVTDAENCHLAR [tryptic peptide of the model peptide mixture, 5 positively charged groups] ... upper segment
30. VDLEDYK ... lower segment
31. FKDLGEEHFK ... middle segment
32. VFEHIGK ... middle segment
33. LLLLLDFR ... lower segment
34. SILENLR ... lower segment

----------
Each entry below carries its reported Slope (experimental).
- PROTOCOL DETAILS: Determination of S from retention time shift Δ relative to P3 at two gradient slopes, nano-RP-HPLC MS of spiked tryptic digest
- Type: physicochemical
- MEASUREMENT CONTEXT: experimental S value, LC-MS runs of model peptide mixture
READOUT KIND: Slope (experimental)

1. ETTVFENLPEK ... 29.323
2. ETYGDMADCCEK ... 36.36
3. EDLIWK [tryptic peptide detected in the model peptide mixture] ... 21.902
4. QAYPNLCQLCK ... 32.399
5. VVWCAVGPEEQK ... 29.603
6. KEEAPSLRPVPPPISGGGYR ... 42.646
7. YETLISTHESTIR ... 36.09
8. LLIEMEDWKGDK ... 30.791
9. LCVLHEK ... 34.16
10. IHLISTQSTIPYVLR ... 35.386
11. EKYYGYTGAFR ... 34.957
12. AEFVEVTK ... 29.046
13. ENFEVLCK ... 27.436
14. KDMDKVETFLR ... 34.768
15. WYSMKK ... 33.268
16. TSTADYASFK ... 30.833
17. VLDALDSIK ... 26.128
18. LDGSLDFK ... 25.689
19. KYAAELHLVHWNTK ... 39.205
20. FLQEIYNSNSQK ... 30.666
21. ELPDPQESIQR ... 34.299
22. ETTVFENLPEKADR ... 34.533
23. NECFLSHKDDSPDLPK ... 41.14
24. KKEEAPSLRPVPPPISGGGYR ... 44.873
25. RLDGSLDFKK ... 35.968
26. VFEHIGKR ... 41.112
27. GDSVSQGTGLAPGSPR ... 38.571
28. LLGGSLSSLHAAFR ... 34.021
29. LLGGGSLSSSLHAAAFR ... 35.968
30. SQLQEAPLEWK ... 28.576
31. FNSANDDNVTQVR ... 38.415
32. LLGGGSLSSSLDAAAFR ... 32.333
33. LASAAHFR ... 38.571
34. LCALCAGDDQGLDK ... 33.517
35. DNPQTHYYAVAVVK ... 34.815
36. KTYDSYLGDDYVR ... 35.968
37. QEPERNECFLSHKDDSPDLPK ... 45.147
38. ILESGPFVSCVK ... 29.323
39. LKPDPNTLCDEFKADEK ... 41.815

----------
Each entry below carries its reported Slope (experimental).
- PROTOCOL DETAILS: Determination of S from retention time shift Δ relative to P3 at two gradient slopes, nano-RP-HPLC MS of spiked tryptic digest
- Assay type: physicochemical
- MEASUREMENT CONTEXT: experimental S value, LC-MS runs of model peptide mixture
READOUT KIND: Slope (experimental)

1) YYGYTGAFR ... 29.343
2) IQLEDWNGR ... 27.849
3) LLHLLHFR ... 31.51
4) RLCENIAGHLK ... 40.229
5) LLHAAHFR ... 39.794
6) KPVTEAQSCHLAVAPNHAVVSR ... 49.479
7) AMTNLR ... 32.841
8) QVLLHQQALFGK ... 33.087
9) LAGGSASSADAAFR ... 34.509
10) TPCTVTCNIPVVSGK ... 34.721
11) ALEHKVDLEDYK ... 39.365
12) ESPQTHYYAVAVVK ... 36.262
13) VYCDMK ... 35.652
14) LLIEMEDWK ... 26.865
15) LLSAAHFR ... 32.998
16) DNPQTHYYAVAVVKK ... 39.552
17) LAGSASAHAFR ... 40.64
18) TSSSTFQYITLLK ... 29.703
19) LLSLAHFR ... 29.303
20) LCQLCAGK ... 34.229
21) LAGGGSASSSAHAAAFR ... 44.118
22) LAVAAHFR ... 34.392

----------
- PROTOCOL DETAILS: Determination of S from retention time shift Δ relative to P3 at two gradient slopes, nano-RP-HPLC MS of spiked tryptic digest
- Assay type: physicochemical
- MEASUREMENT CONTEXT: model peptide mixture (tryptic digest of bovine proteins), 0.75 and 0.1875% acetonitrile per minute gradients, formic acid, S from Δ vs. S curve of S-calibrating peptides
Each entry below carries its reported experimental S-value.
READOUT KIND: experimental S-value

1) EDLIWK [tryptic peptide detected in the model peptide mixture] ... 21.9
2) VTGENDKYR [moderately sized, hydrophilic tryptic species of the model peptide mixture] ... 49.0
3) KPVTEAQSCHLAVAPNHAWSR (KPVTEAQSCHLAVAPNHAVVSR) [tryptic peptide of the model peptide mixture, 5 positively charged groups] ... 49.5
4) DSALGFLR [tryptic peptide detected in the model peptide mixture] ... 21.8
5) DGTRKPVTDAENCHLAR [tryptic peptide of the model peptide mixture, 5 positively charged groups] ... 50.4
